System: NCI-H522 lung
Experiment: NCI tumour cell line growth inhibition, 48 h; in the data active = GI50 below about 0.43 µM; inactive = the rest
The reply should be one of these categories: 1 = active, 0 = inactive

Solved entries:
O=c1/c(=C\c2ccc(Br)cc2)sc2n1C(c1ccc(Br)cc1)C1=C(N=2)c2ccc3ccccc3c2OCC1 (stereo not drawn) ... 0
CC1[C@@H]2CC=C3[C@H]4CCC5Cc6nc7c(nc6C[C@@]5(C)C4CC(=O)[C@]32CO[C@]12OC(C)(C)CC2O)CC1CC[C@@H]2C3=C[C@H]4O[C@@]5(O[C@@](C)(CO)C[C@@H]5O)C(C)[C@@]4(O)[C@]3(C)[C@@H](O)CC2[C@]1(C)C7 (stereo partly drawn) ... 1

From here, focus on the item given below.
Could you please tell me the result logged for "CCCCCCCCCCCCCCCCCCOc1ccccc1COP(=O)(O)OOCC[N+](C)(C)C" in this assay?
0

====

System: LXFL 529 NSCLC
Assay: NCI tumour cell line growth inhibition, 48 h
experimentalReadout: TGI

COc1ccc2nc3ccccc3c(NCCN(CCCl)CCCl)c2c1 ... 2.25 µM
N#Cc1cccc(C2C(=O)c3ccc(C(=O)c4ccc5c(c4)C(=O)N(c4ccc(Oc6ccc(N7C(=O)c8ccc(C(=O)c9ccc%10c(c9)C(=O)N(c9cccc(C#N)c9)C%10=O)cc8C7=O)cc6)cc4)C5=O)cc3C2=O)c1 (centres undefined) ... > 100 µM
Clc1ccccc1C1SCc2nc3ccccc3n21 (centres undefined) ... > 100 µM

Missing value: TGI, LXFL 529 NSCLC, entry C[C@]12CCc3nn(-c4ccccc4)nc3C1CC[C@@H]1C2CC[C@]2(C)C(=O)CCC12 (some centres undefined) . Fill in?
> 100 µM

====

Tested on: K-562 leukemia
Test: NCI tumour cell line growth inhibition, 48 h; in the data active = GI50 below about 0.43 µM; inactive = the rest
The reply should be one of these categories: active, inactive

Fc1ccc(Nc2nc3nonc3nc2Nc2ccc(I)cc2)cc1 ... active
COC(=O)c1cccc(NC(=O)c2ccc(NC3=C(Cl)C(=O)N(Cc4ccccc4)C3=O)cc2)c1 ... inactive
Cc1cc(C)c2c(c1)N(C)c1ncnc(-n3cnc4cc(C)ccc43)c1CC2C (centres undefined) ... inactive
COc1cc(C2CC(c3cccc(Nc4ccnc5cc(Cl)ccc45)c3)=NN2c2ccccc2)cc(OC)c1OC (centres undefined) ... inactive

Could you please tell me the result logged for "Cc1cc(-c2cc(OC(=O)c3ccccc3)ccc2Cl)cc2nnc(Nc3ccc(OCCN4CCCC4)cc3)nc12" in this assay?
active

Follow-up entry: "[CH3][Hg]/[N]=C(/N)NC#N"
inactive

Follow-up entry: "C[C@]12CC[C@@H]3c4ccc(OC(=O)N(CCCl)CCCl)cc4CC[C@H]3[C@@H]1CC[C@@H]2OP(=O)(O)O"
inactive

Follow-up entry: O=c1/c(=C\c2ccc(Br)cc2)sc2n1C(c1ccc(Br)cc1)C1=C(N=2)c2ccc3ccccc3c2OCC1 (centres undefined)
inactive

Follow-up entry: "CCOc1ccc2c(c1)C(=O)c1c-2n(CCCN=[N+]=[N-])c(=O)c2cc([N+](=O)[O-])ccc12"
inactive

====

Tested on: IGROV1 ovarian
Assay: NCI tumour cell line growth inhibition, 48 h
Is TGI at least 20 µM? Then MET. If not, NOT MET.

Solved entries:
O=C1OC(c2ccccc2Br)=N/C1=C/c1ccccc1 ... MET
O=C1OCC2=C1C(c1cccc(Cl)c1)c1cc3c(cc1N2CCO)CCC3 (stereo not given) ... NOT MET
COc1cc(C(=O)NN=C2c3ccccc3-c3ccccc32)cc(OC)c1OC ... MET

Does the compound CC(=O)OCC1OC(O[C@H]2C=C[C@@H](C(=O)OCc3ccccc3)n3c(=O)n(-c4ccccc4)c(=O)n32)C(OC(C)=O)C(OC(C)=O)C1OC(C)=O (stereo not given in full) have recorded TGI that is 20 µM or more?
NOT MET

Follow-up entry: Cc1cc(Cl)cc2c1NC(=O)C2(O)C(C(=O)c1ccccc1)c1ccccc1 (stereo not given)
MET

Follow-up entry: "OC(Cc1cc(CC(O)(C(F)(F)F)C(F)(F)F)nc(CC(O)(C(F)(F)F)C(F)(F)F)c1)(C(F)(F)F)C(F)(F)F"
NOT MET

Follow-up entry: "C=C(C)[C@H]1CC(=O)[C@@]2(C)C[C@H]3O[C@]3(C)CC/C=C(\C)CC[C@H]12"
MET

Follow-up entry: "O=C1c2ccccc2C(=O)N1NC1=NCCN1"
MET

Follow-up entry: NC(CSCSCC(N)C(=O)O)C(=O)O (stereo not given)
MET

// provenance: PubChem BioAssay (NCI)
